Target: THR beta (Homo sapiens)
Construct: expressed in transfected cells; host or cells: HEK293T (ATCC CRL-3216)
Sequence (P10828 1-461): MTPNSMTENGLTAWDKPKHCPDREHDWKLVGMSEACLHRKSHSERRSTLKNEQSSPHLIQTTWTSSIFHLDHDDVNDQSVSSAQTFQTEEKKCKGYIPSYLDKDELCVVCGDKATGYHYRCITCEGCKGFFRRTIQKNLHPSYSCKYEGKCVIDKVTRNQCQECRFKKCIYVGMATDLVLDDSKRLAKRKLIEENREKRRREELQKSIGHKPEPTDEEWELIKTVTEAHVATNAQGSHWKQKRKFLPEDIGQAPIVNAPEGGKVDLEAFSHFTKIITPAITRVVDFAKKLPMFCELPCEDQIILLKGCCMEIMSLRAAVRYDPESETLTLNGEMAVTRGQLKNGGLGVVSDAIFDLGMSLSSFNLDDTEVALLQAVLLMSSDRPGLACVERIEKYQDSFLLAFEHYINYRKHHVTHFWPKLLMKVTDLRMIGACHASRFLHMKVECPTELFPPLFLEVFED
Sequence (P19793 1-462 partner): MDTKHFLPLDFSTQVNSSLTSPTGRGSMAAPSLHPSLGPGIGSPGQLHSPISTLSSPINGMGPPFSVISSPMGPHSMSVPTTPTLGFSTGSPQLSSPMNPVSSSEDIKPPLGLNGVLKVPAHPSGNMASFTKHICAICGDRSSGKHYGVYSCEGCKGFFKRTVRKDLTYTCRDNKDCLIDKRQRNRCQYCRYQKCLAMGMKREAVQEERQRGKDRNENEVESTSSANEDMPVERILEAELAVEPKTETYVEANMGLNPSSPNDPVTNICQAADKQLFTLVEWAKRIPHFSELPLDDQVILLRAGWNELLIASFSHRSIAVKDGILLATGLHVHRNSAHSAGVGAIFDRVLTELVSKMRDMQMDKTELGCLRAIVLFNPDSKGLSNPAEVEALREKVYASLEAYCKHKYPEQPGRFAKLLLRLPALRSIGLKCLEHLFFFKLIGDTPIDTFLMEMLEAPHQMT
Assay: HEK293T THR beta/RXR luciferase reporter assay (Assay 2)
Format: cell-based
Conditions: HEK-293T; Table 5; Assay 2; THRβ; read-out: Activity category Assay 2 THRβ (Emax)
Reported endpoint: Emax

>>> experimental_result("Nc1nn(-c2cc(Cl)c(Oc3cc(C4(F)CCCC4)c(=O)[nH]n3)c(Cl)c2)c(=O)[nH]c1=O")
"50 to 75%"
>>> experimental_result("Nc1nn(-c2cc(Cl)c(Oc3cc(-c4cccc(F)c4)c(=O)[nH]n3)c(Cl)c2)c(=O)[nH]c1=O")
"50 to 75%"
>>> experimental_result("Cc1cccc(-c2cc(Oc3c(Cl)cc(-n4nc(N)c(=O)[nH]c4=O)cc3Cl)n[nH]c2=O)c1F")
"50 to 75%"

Query: What does the record list as Emax for N#Cc1nn(-c2cc(Cl)c(Oc3ccc4[nH]cc(Cc5ccccc5)c4c3)c(Cl)c2)c(=O)[nH]c1=O ?
Result: 50 to 75%

Query: Item under review: Cc1cc(-n2nc(C#N)c(=O)[nH]c2=O)cc(C)c1Cc1ccc2c(c1)C1(CC1)C(=O)N2 . Reported Emax?
Result: 50 to 75%

Query: Look at this compound and give its reported Emax. Cc1cc(-n2nc(N)c(=O)[nH]c2=O)cc(Cl)c1Oc1cc(C(C)C)c(=O)[nH]n1
Result: > 75%

###

Target: human thyroid receptor beta ligand-binding domain (LBD) (Homo sapiens, UniProt P10828)
Construct: purchased Invitrogen
Test: TR-FRET thyroid receptor beta coactivator assay (THR biochemical assay, Assay 1)
Conditions: Table 5; Assay 1; THRβ; read-out: Activity category Assay 1 THRβ (Emax)
Reported endpoint: Emax

Previously resolved entries follow.
>>> experimental_result("CCn1nc(-c2cc(Cl)c(Oc3cc(C(C)C)c(=O)[nH]n3)c(Cl)c2)c(=O)[nH]c1=O [Compound 23]")
"< 50%"
>>> experimental_result("CC(c1c[nH]c2ccc(Oc3c(Cl)cc(-n4nc(C#N)c(=O)[nH]c4=O)cc3Cl)cc12)C(F)(F)F (stereo not drawn) [Compound 45]")
"< 50%"
>>> experimental_result("Nc1nn(-c2cc(Cl)c(Oc3cc(-c4ccc5ccccc5c4)c(=O)[nH]n3)c(Cl)c2)c(=O)[nH]c1=O [Compound 67]")
"< 50%"

Query: Item Nc1nn(-c2cc(Cl)c(Oc3n[nH]c(=O)cc3-c3cc4ccccc4cn3)c(Cl)c2)c(=O)[nH]c1=O [Compound 134] has what recorded Emax?
Result: < 50%

Query: # get_value(readout='Emax', item= CC1(C)C(=O)Nc2ccc(Oc3c(Cl)cc(-n4nc(N)c(=O)[nH]c4=O)cc3Cl)cc21 [Compound 82] )
Result: > 75%

Query: Any idea what Emax was measured for N#CC1CCC1c1cc(Oc2c(Cl)cc(-n3nc(N)c(=O)[nH]c3=O)cc2Cl)n[nH]c1=O (stereo not drawn) [Compound 104] ?
Result: < 50%

Query: Returns the measured Emax for the input molecule. Input: Nc1nn(-c2cc(Cl)c(Oc3n[nH]c(=O)cc3-c3cccc(Cl)c3)c(Cl)c2)c(=O)[nH]c1=O [Compound 68-A]
Result: < 50%

Query: Can you share its Emax? I mean this molecule: CCc1cccc(-c2cc(Oc3c(Cl)cc(-n4nc(N)c(=O)[nH]c4=O)cc3Cl)n[nH]c2=O)c1 [Compound 71]
Result: < 50%

Query: What Emax value was documented for this molecule, Cc1cc(-n2nc(C#N)c(=O)[nH]c2=O)cc(C)c1Cc1cnc2[nH]cc(C(C)C)c2n1 [Compound 66] ?
Result: 50 to 75%

Query: Which value of Emax has been reported for Cc1cc(-n2nc(C#N)c(=O)[nH]c2=O)cc(C)c1Cc1ccc2[nH]cc(C(C)C)c2n1 [Compound 31] in the records?
Result: 50 to 75%

###

Biological target: human thyroid receptor alpha ligand-binding domain (LBD) (Homo sapiens, UniProt P10827)
Construct: purchased Invitrogen
Assay: TR-FRET thyroid receptor alpha coactivator assay (THR biochemical assay, Assay 1)
Conditions: Table 5, THRα, read-out: Activity category Assay 1 THRα (Emax)
Reported endpoint: Emax

>>> experimental_result("CC(C)c1c[nH]c2nnc(Oc3c(Cl)cc(-n4nc(N)c(=O)[nH]c4=O)cc3Cl)cc12")
"< 50%"
>>> experimental_result("Nc1nn(-c2cc(Cl)c(Oc3cc(C(O)C4CCCC4)c(=O)[nH]n3)c(Cl)c2)c(=O)[nH]c1=O (stereo not shown)")
"50 to 75%"
>>> experimental_result("N#C[C@@H]1CC[C@H]1c1cc(Oc2c(Cl)cc(-n3nc(N)c(=O)[nH]c3=O)cc2Cl)n[nH]c1=O (relative stereo)")
"< 50%"

Query: # Emax lookup, item CCc1cccc(-c2cc(=O)[nH]nc2Oc2c(Cl)cc(-n3nc(N)c(=O)[nH]c3=O)cc2Cl)c1
Result: < 50%

###

Target: THR alpha (Homo sapiens, UniProt P10827)
Construct: expressed in transfected cells; host or cells: HEK293T (ATCC CRL-3216)
Sequence (P10827 1-410 isoform P10827-2): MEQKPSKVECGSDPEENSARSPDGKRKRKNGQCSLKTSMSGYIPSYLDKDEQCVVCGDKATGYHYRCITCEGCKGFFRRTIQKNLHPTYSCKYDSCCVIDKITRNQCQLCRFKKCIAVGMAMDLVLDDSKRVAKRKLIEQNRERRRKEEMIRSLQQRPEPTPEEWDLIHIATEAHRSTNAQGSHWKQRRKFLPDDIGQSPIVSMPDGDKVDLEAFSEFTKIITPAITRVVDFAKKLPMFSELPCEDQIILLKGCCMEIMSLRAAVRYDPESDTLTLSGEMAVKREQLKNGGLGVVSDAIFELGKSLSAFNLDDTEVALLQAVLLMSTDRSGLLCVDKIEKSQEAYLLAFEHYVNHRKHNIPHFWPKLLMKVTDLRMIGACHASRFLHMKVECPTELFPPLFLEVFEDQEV
Sequence (P19793 1-462 partner): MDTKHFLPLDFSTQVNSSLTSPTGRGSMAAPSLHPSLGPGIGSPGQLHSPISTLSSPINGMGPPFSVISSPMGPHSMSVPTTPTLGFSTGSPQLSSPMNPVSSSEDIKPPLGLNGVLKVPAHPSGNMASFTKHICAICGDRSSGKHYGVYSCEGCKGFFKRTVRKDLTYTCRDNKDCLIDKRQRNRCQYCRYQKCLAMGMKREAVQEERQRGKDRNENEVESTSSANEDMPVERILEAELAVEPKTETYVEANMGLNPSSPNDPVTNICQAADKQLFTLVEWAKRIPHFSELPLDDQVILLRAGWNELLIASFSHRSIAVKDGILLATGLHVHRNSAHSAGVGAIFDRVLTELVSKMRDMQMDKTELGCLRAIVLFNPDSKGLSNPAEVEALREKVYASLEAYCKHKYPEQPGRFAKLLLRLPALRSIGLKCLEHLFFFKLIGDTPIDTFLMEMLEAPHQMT
Assay: HEK293T THR alpha/RXR luciferase reporter assay (Assay 2)
Type: cell-based
Settings: Table 4; THR-alpha; Assay 2; read-out: Activity category Assay 2 (EC50, THR-alpha agonist activity)
Reported endpoint: EC50

Recorded EC50, per entry:
>>> experimental_result("Nc1nn(-c2cc(Cl)c(Oc3cc(-c4ccc5c(c4)CCCC5)c(=O)[nH]n3)c(Cl)c2)c(=O)[nH]c1=O")
"> 10 µM"
>>> experimental_result("Cc1cc(-n2nc(C#N)c(=O)[nH]c2=O)cc(C)c1Cc1ccc2c(c1)C1(CC1)C(=O)N2")
"1 to 10 µM"
>>> experimental_result("N#Cc1nn(-c2cc(Cl)c(Oc3ccc4[nH]cc(Cc5ccccc5)c4c3)c(Cl)c2)c(=O)[nH]c1=O")
"> 10 µM"

Query: Field request: EC50 | item: Cc1cccc(-c2cc(Oc3c(Cl)cc(-n4nc(N)c(=O)[nH]c4=O)cc3Cl)n[nH]c2=O)c1F
Result: 0.25 to 1 µM

Value source: patent US12180192B2
